The compounds listed here are annotated with their IC50.
assay-target: MAdCAM-1/α4β7 integrin (Homo sapiens, UniProt P13612+P26010)
Construct: a human B-cell line known to express α4β7 integrin; endogenous in cells
Sequence (P13612 34-1032): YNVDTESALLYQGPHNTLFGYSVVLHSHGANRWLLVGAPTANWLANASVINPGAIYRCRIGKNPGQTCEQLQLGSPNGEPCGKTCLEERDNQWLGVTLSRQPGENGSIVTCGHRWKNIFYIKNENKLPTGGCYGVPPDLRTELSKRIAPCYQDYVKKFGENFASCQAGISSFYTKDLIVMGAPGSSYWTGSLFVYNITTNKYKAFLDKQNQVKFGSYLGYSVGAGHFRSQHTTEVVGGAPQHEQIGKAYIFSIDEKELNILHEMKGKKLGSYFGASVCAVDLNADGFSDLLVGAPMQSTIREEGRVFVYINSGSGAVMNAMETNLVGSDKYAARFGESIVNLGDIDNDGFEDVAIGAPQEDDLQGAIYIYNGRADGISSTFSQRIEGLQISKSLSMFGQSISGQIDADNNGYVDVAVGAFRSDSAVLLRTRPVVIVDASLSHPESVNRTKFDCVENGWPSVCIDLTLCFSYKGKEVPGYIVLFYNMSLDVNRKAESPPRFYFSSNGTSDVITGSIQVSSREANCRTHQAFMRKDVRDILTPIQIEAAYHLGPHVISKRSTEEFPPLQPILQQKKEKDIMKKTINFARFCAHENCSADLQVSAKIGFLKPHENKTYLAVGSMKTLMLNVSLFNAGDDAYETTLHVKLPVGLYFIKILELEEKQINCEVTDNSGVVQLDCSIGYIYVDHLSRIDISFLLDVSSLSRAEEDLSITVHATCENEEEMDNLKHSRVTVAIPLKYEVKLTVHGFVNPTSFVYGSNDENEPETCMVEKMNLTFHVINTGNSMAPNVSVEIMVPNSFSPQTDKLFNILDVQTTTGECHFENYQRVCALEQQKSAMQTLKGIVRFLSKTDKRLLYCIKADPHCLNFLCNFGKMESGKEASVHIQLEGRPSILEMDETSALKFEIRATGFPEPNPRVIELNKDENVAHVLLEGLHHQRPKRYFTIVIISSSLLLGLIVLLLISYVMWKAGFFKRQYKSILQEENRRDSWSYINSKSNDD
Sequence (P26010 20-798): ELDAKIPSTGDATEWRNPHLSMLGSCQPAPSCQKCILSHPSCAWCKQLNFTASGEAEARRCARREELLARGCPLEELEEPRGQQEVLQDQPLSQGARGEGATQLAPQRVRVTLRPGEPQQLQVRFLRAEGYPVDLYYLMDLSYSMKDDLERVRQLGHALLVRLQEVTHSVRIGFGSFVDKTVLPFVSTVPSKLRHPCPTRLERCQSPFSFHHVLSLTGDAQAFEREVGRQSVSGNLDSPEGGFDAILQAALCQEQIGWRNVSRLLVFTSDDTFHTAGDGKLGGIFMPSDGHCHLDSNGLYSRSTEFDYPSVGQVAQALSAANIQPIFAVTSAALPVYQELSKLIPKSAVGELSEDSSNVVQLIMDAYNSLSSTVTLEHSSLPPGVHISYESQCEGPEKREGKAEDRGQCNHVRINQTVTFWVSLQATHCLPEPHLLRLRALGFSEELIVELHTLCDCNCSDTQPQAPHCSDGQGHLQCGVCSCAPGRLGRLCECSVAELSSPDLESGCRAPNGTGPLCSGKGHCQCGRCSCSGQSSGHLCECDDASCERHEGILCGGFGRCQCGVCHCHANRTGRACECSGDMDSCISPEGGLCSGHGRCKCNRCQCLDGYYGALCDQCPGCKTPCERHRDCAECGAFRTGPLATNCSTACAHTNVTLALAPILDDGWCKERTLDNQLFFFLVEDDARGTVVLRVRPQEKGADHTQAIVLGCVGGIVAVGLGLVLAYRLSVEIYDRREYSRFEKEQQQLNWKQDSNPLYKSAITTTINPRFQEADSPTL
assay-text: Evaluation test (1) for MAdCAM-1/α4β7 integrin binding inhibitory activity in the presence of serum (RPMI-8866 cell binding to MAdCAM-1/Fc)
experimental-setup: RPMI-8866 cells, recombinant mouse MAdCAM-1/Fc, human serum at final concentration of 50%; read-out: α4β7 Serum Activity rank when α4β7 serum was added

> print(dat)
                            compound.string  assay.endpoint  observed.result
1  Cn1c(=O)n(-c2ccc(C[C@H](NC(=O)c3cc(F)c(NS(=O)(=O)c4ccc(-c5cnc(C6CCNCC6)nc5)cc4)cc3F)C(=O)O)nc2)c(=O)c2ccncc21            IC50  0.01 to 0.05 µM
2  Cc1c(-c2ccc(C[C@H](NC(=O)c3c(F)cc(NS(=O)(=O)c4ccc(C(=O)NC5CC5)cc4)cc3F)C(=O)O)cc2)c(=O)n(C)c(=O)n1C            IC50  0.01 to 0.05 µM
3  Cc1cc(-c2ccccn2)ccc1S(=O)(=O)Nc1ccc(C(=O)N[C@@H](Cc2ccc(-c3c(C)n(C)c(=O)n(C)c3=O)cc2)C(=O)O)c(F)c1            IC50         > 0.2 µM

Query compound follows.
Request: Returns the measured IC50 for the input compound. Input: Cc1c(-c2ccc(C[C@H](NC(=O)c3cc(F)c(NS(=O)(=O)c4ccc(-c5cnc(C6CCOCC6)nc5)cc4)cc3F)C(=O)O)nc2)c(=O)n(C)c(=O)n1C
Response: > 0.2 µM

Values from patent US9822110B2
